- System: ETA and ETB receptors
- assay: Endothelin binding inhibition assays of the Examples, result stated for ETA and/or ETB
- Set-up: species or system human
- recorded-conditions: relative to the other compounds listed; in vitro binding assays
measurement-type: More active among these compounds

Answered examples (6):
| molecule | More active among these compounds |
| --- | --- |
| COc1cccc(Oc2cccc(Oc3ccc4c(c3)OCO4)c2C(=O)O)c1 | More active |
| O=C(O)c1c(Oc2ccc3c(c2)OCO3)cccc1Oc1ccc2c(c1)OCO2 | More active |
| COc1ccc(Sc2cccc(Oc3ccc4c(c3)OCO4)c2C(=O)O)cc1 | More active |
| CCCc1cc2c(cc1Oc1cccc(Oc3ccc4c(c3)OCO4)c1C(=O)O)OCO2 | More active |
| COc1ccc(Oc2cccc(Oc3ccc4c(c3)OCO4)c2C(=O)O)cc1 | More active |
| O=C(O)/C=C/c1cc2c(cc1Oc1cccc(Oc3ccc4c(c3)OCO4)c1C(=O)O)OCO2 | More active |

Turning now to a further record.
Query: Write More active among these compounds of Cc1cccc(Oc2cccc(Oc3ccc4c(c3)OCO4)c2C(=O)O)c1 ; system used: ETA and ETB receptors
Reply: More active

###

- System: ETA and ETB receptors
- assay: Endothelin binding inhibition assays of the Examples, result stated for ETA and/or ETB
- Set-up: species or system human
- recorded-conditions: relative to the other compounds listed; in vitro binding assays

| molecule | experimental-target | More active among these compounds |
| --- | --- | --- |
| O=C(O)CCc1cc2c(cc1Oc1cccc(Oc3ccc4c(c3)OCO4)c1C(=O)O)OCO2 | ETA and ETB receptors | More active |
| Cc1ccc(Oc2cccc(Oc3ccc4c(c3)OCO4)c2C(=O)O)cc1 | ETA and ETB receptors | More active |
| Cc1ccc(Oc2cccc(Oc3ccc4c(c3)OCO4)c2C(=O)O)c(Br)c1 | ETA and ETB receptors | More active |

This collection of values is drawn from patent US20010014694A1.
